test target: Mcl-1 protein (UniProtKB primary accession number: Q07820) (Homo sapiens, UniProt Q07820)
Sequence (Q07820 whole entry): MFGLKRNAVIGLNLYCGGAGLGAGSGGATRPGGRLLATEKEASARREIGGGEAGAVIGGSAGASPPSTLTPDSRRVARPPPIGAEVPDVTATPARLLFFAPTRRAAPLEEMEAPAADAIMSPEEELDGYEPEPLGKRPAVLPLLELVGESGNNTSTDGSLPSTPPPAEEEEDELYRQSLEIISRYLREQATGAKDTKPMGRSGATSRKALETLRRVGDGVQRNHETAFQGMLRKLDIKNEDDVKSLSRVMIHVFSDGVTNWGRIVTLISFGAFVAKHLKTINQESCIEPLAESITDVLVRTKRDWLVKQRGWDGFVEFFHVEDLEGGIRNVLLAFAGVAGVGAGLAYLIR
protocol text: Inhibition of Mcl-1 by fluorescence polarisation, Method 1
Type: binding
condition details: fluorescence polarisation test; Method 2 values are underlined in the patent (underlining not visible here); read-out: IC50 (M) Mcl-1 FP
quantity kind: IC50 (M)

Known IC50 results, listed for orientation:
[[record]]
molecule = "Cc1c(-c2c(-c3ccco3)sc3ncnc(OC(Cc4ccccc4OCc4ncccc4Cl)C(=O)O)c23)ccc(OCCN2CCN(C)CC2)c1Cl (stereo not drawn)"
quantity_kind = "IC50"
endpoint_unit = "M"
assay_result = "1.7e-08"

[[record]]
molecule = "Cc1c(-c2c(-c3ccc(Cl)o3)sc3ncnc(OC(Cc4ccccc4OCc4cocn4)C(=O)O)c23)ccc(OCCN2CCN(C)CC2)c1Cl (stereo not drawn)"
quantity_kind = "IC50"
endpoint_unit = "M"
assay_result = "2e-09"

[[record]]
molecule = "Cc1c(-c2c(-c3ccc(F)cc3)sc3ncnc(OC(Cc4ccccc4OCc4ccnn4C(C)(C)C)C(=O)O)c23)ccc(OCCN2CCN(C)CC2)c1Cl (stereo not drawn)"
quantity_kind = "IC50"
endpoint_unit = "M"
assay_result = "1.6e-09"


[a] Cc1c(-c2c(-c3ccco3)sc3ncnc(OC(Cc4ccccc4OCc4ccnn4C(C)C)C(=O)O)c23)ccc(OCCN2CCN(C)CC2)c1Cl (stereo not drawn)
[b] COc1cc(COc2ccccc2CC(Oc2ncnc3sc(-c4ccc(F)o4)c(-c4ccc(OCCN5CCN(C)CC5)c(Cl)c4C)c23)C(=O)O)ccn1 (stereo not drawn)
[c] Cc1c(-c2c(-c3ccco3)sc3ncnc(OC(Cc4ccccc4OC(F)F)C(=O)O)c23)ccc(OCCN2CCN(C)CC2)c1Cl (stereo not drawn)
Task for the reader: rank each entry by its IC50, from the minimum upward. Response format: the labels, sorted as the prompt asks. a, b, c
(a: 1.7e-09 M, b: 2.8e-09 M, c: 3e-08 M)

----------
Test system: H929 multiple myeloma tumour line
protocol text: In vitro cytotoxicity, Microculture Tetrazolium Assay
Assay type: cell-based
condition details: Homo sapiens, NCI-H929, 48 h, H929 cells, 48 hours exposure, MTT; read-out: IC50 (μM) MTT H929
Method: The cytotoxicity studies were carried out on the H929 multiple myeloma tumour line. The cells are distributed onto microplates and exposed to the test compounds for 48 hours.
Overview of reported IC50 across a group of molecules:
Unit µM implied. Number only.

Known IC50 results, listed for orientation:
[[record]]
molecule = "Cc1c(-c2c(-c3ccco3)sc3ncnc(OC(Cc4ccccc4OCc4cocn4)C(=O)O)c23)ccc(OCCN2CCN(C)CC2)c1Cl (stereo not drawn) [Example 280]"
endpoint_unit = "µM"
assay_result = 0.071

[[record]]
molecule = "CCc1sc2ncnc(OC(Cc3ccccc3)C(=O)O)c2c1-c1ccc(OCC(=O)N2CCOCC2)c(Cl)c1C (stereo not drawn) [Example 393]"
endpoint_unit = "µM"
assay_result = 16.6

[[record]]
molecule = "Cc1c(-c2c(-c3ccc(F)cc3)sc3ncnc(OC(Cc4ccccc4OCc4ccnc(OCC(F)(F)F)n4)C(=O)O)c23)ccc(OCCN2CCN(C)CC2)c1Cl (stereo not drawn) [Example 58]"
endpoint_unit = "µM"
assay_result = 0.01

[[record]]
molecule = "COc1ccc(C)cc1CC(Oc1ncnc2sc(-c3ccco3)c(-c3ccc(OCCN4CCN(C)CC4)c(Cl)c3C)c12)C(=O)O (stereo not drawn) [Example 344]"
endpoint_unit = "µM"
assay_result = 0.22

[[record]]
molecule = "COc1ccccc1CC(Oc1ncnc2sc(-c3ccsc3)c(-c3ccc(OCCN4CCN(C)CC4)c(Cl)c3C)c12)C(=O)O (stereo not drawn) [Example 568]"
endpoint_unit = "µM"
assay_result = 0.22


Which IC50 value belongs to Cc1c(-c2c(-c3ccc(OCC(F)(F)F)nc3)sc3ncnc(OC(Cc4ccccc4OCc4ccnn4CC(F)(F)F)C(=O)O)c23)ccc(OCCN2CCN(C)CC2)c1Cl (stereo not drawn) [Example 695] ? 0.268

Which IC50 value belongs to COc1ccccc1CC(Oc1ncnc2sc(-c3csc(Cl)c3)c(-c3ccc(OCCN4CCN(C)CC4)c(Cl)c3C)c12)C(=O)O (stereo not drawn) [Example 570] ? 0.324

Which IC50 value belongs to Cc1c(-c2c(-c3ccco3)sc3ncnc(OC(Cc4ccccc4OCc4cc(Cl)ccn4)C(=O)O)c23)ccc(OCCN2CCN(C)CC2)c1Cl (stereo not drawn) [Example 222] ? 0.314

Which IC50 value belongs to COc1ccccc1CC(Oc1ncnc2sc(-c3cc(F)c(F)c(F)c3)c(-c3ccc(OCCN4CCN(C)CC4)c(Cl)c3C)c12)C(=O)O (stereo not drawn) [Example 523] ? 0.532

Which IC50 value belongs to CCOc1cccc(-c2sc3ncnc(OC(Cc4ccccc4OC)C(=O)O)c3c2-c2ccc(OCCN3CCN(C)CC3)c(Cl)c2C)c1 (stereo not drawn) [Example 557] ? 0.475

Which IC50 value belongs to Cc1cscc1-c1nccc(COc2ccccc2CC(Oc2ncnc3sc(-c4ccc(F)cc4)c(-c4ccc(OCCN5CCN(C)CC5)c(Cl)c4C)c23)C(=O)O)n1 (stereo not drawn) [Example 124] ? 0.024

Which IC50 value belongs to COc1ccccc1CC(Oc1ncnc2sc(-c3ccco3)c(-c3ccc(OCC4CCN(C)C4)c(Cl)c3C)c12)C(=O)O (stereo not drawn) [Example 310] ? 0.26

Values were extracted from patent US9670227B2.
